# EXPERIMENTAL_SYSTEM: Estrogen receptor beta (Homo sapiens); note: unit not given here
VALUE_TYPE: Binding affinity

Cc1c(C(C)(C)C)nc2c(-c3ccc(O)cc3)c(-c3ccccc3)nn2c1C(C)(C)C: 0.01

a. CC(C)c1cc(C(C)C)n2nc(-c3cccc(O)c3)c(-c3ccc(O)cc3)c2n1
b. Oc1ccc(-c2nn3cccnc3c2-c2ccc(O)cc2)cc1
For this pair, a and b , which shows a numerically higher Binding affinity? Output the label that corresponds to your choice.
b
(b: 0.1, a: 0.01)

---

// endpoint Binding affinity / system Estrogen receptor beta (Homo sapiens); note: unit not given here
VALUE_TYPE: Binding affinity

Before answering, review these 2 worked examples.
CC(C)c1cc(C(C)C)n2nc(-c3ccc(O)cc3)c(-c3ccccc3)c2n1: 0.06
CCc1cc(CC)n2nc(-c3ccc(O)cc3)c(-c3ccccc3)c2n1: 0.06

1. Cc1c(C(C)(C)C)nc2c(-c3ccc(O)cc3)c(-c3ccc(O)cc3)nn2c1C(C)(C)C
2. Cc1nc2c(-c3ccc(O)cc3)c(-c3ccc(O)cc3)nn2c(C)c1C
3. Cc1cc(C)n2nc(-c3ccccc3)c(-c3ccc(O)cc3)c2n1
List these items ordered by Binding affinity, big to small. Order the labels as requested and give them as your answer.
1, 3, 2
(1: 0.16, 3: 0.05, 2: 0.01)

---

// endpoint Binding affinity / system Estrogen receptor (Homo sapiens) (UniProt P03372)
VALUE_TYPE: Binding affinity

Before answering, review these 3 worked examples.
Oc1ccc(-c2nn3c(C(F)(F)F)cc(C(F)(F)F)nc3c2-c2ccc(O)cc2)cc1: 1.9
Cc1nc2c(-c3ccccc3)c(-c3ccc(O)cc3)nn2c(C)c1C: 0.01
Cc1cc(C)n2nc(-c3ccc(O)cc3)c(-c3ccccc3)c2n1: 0.02

a. Oc1ccc(-c2c(-c3ccccc3)nn3cccnc23)cc1
b. Oc1ccc(-c2nn3c(-c4ccccc4)cc(-c4ccccc4)nc3c2-c2ccc(O)cc2)cc1
For this pair, a and b , which shows a numerically higher Binding affinity? Output the label that corresponds to your choice.
b

---

// endpoint Binding affinity / system Estrogen receptor beta (Homo sapiens); note: unit not given here
VALUE_TYPE: Binding affinity

CC(C)c1cc(C(C)C)n2nc(-c3ccccc3)c(-c3ccc(O)cc3)c2n1: 0.05

a. Oc1ccc(-c2nn3c(C(F)(F)F)cc(C(F)(F)F)nc3c2-c2ccccc2)cc1
b. CC(C)c1cc(C(C)C)n2nc(-c3ccc(O)cc3)c(-c3ccc(O)cc3)c2n1
// select label with min value of measured Binding affinity from [ a , b ] Output the label that corresponds to your choice.
b
(b: 0.07, a: 0.41)

---

# EXPERIMENTAL_SYSTEM: Estrogen receptor (Homo sapiens)
VALUE_TYPE: Binding affinity

Before answering, review these 6 worked examples.
CC(C)c1cc(C(C)C)n2nc(-c3ccccc3)c(-c3ccc(O)cc3)c2n1: 0.01
CCc1cc(CC)n2nc(-c3ccccc3)c(-c3ccc(O)cc3)c2n1: 0.02
CCc1cc(CC)n2nc(-c3ccc(O)cc3)c(-c3ccccc3)c2n1: 0.13
Cc1cc(C)n2nc(-c3ccccc3)c(-c3ccc(O)cc3)c2n1: 0.01
Cc1cc(C)n2nc(-c3ccc(O)cc3)c(-c3ccc(O)cc3)c2n1: 0.04
CC(C)c1cc(C(C)C)n2nc(-c3ccc(O)cc3)c(-c3ccccc3)c2n1: 0.14

P. Oc1ccc(-c2nn3c(C(F)(F)F)cc(C(F)(F)F)nc3c2-c2ccccc2)cc1
Q. Cc1c(C(C)(C)C)nc2c(-c3ccccc3)c(-c3ccc(O)cc3)nn2c1C(C)(C)C
R. CCc1cc(CC)n2nc(-c3ccc(O)cc3)c(-c3ccc(O)cc3)c2n1
S. Oc1ccc(-c2c(-c3ccccc3)nn3c(C(F)(F)F)cc(C(F)(F)F)nc23)cc1
T. CC(C)c1cc(C(C)C)n2nc(-c3ccc(O)cc3)c(-c3ccc(O)cc3)c2n1
List these items ordered by Binding affinity, big to small. Order the labels as requested and give them as your answer.
Q, P, R, T, S

P. Cc1c(C(C)(C)C)nc2c(-c3ccc(O)cc3)c(-c3ccc(O)cc3)nn2c1C(C)(C)C
Q. Oc1ccc(-c2c(-c3cccc(O)c3)nn3c(C(F)(F)F)cc(C(F)(F)F)nc23)cc1
// select label with min value of measured Binding affinity from [ P , Q ] Output the label that corresponds to your choice.
Q

The origin of these recorded values is ChEMBL document CHEMBL1138843.
